B1: library; a variant is named by its letters at N, in order (parent)
chain: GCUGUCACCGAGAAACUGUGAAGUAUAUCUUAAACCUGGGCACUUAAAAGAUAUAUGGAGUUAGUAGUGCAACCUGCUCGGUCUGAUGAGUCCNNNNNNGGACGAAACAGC

Variants of: B1
Test: normalized RNA/DNA level without ligand (relative to sTRSVctl = 100) (log10 (% of sTRSVctl)); HEK293T; ligand: cyclic di-GMP (c-di-GMP-II aptamer); higher = less ribozyme self-cleavage, higher mRNA level
Conditions: reporter: mCherry (pCS4076), ligand present: no
Measure Name: normalized RNA/DNA level without ligand (log10)
// return a plain number; no unit text

// query Dear colleague, I am looking for the recorded normalized RNA/DNA level without ligand (log10) of the following variant: GCUGUCACCGAGAAACUGUGAAGUAUAUCUUAAACCUGGGCACUUAAAAGAUAUAUGGAGUUAGUAGUGCAACCUGCUCGGUCUGAUGAGUCCUUGUUAGGACGAAACAGC
// result 1.64

// query Another variant to look at: GCUGUCACCGAGAAACUGUGAAGUAUAUCUUAAACCUGGGCACUUAAAAGAUAUAUGGAGUUAGUAGUGCAACCUGCUCGGUCUGAUGAGUCCGCGUAGGGACGAAACAGC
// result 1.67

// query Another variant to look at: GCUGUCACCGAGAAACUGUGAAGUAUAUCUUAAACCUGGGCACUUAAAAGAUAUAUGGAGUUAGUAGUGCAACCUGCUCGGUCUGAUGAGUCCCGUGGUGGACGAAACAGC
// result 1.74

// query Another variant to look at: GCUGUCACCGAGAAACUGUGAAGUAUAUCUUAAACCUGGGCACUUAAAAGAUAUAUGGAGUUAGUAGUGCAACCUGCUCGGUCUGAUGAGUCCCCUUAAGGACGAAACAGC
// result 1.45

// query Another variant to look at: GCUGUCACCGAGAAACUGUGAAGUAUAUCUUAAACCUGGGCACUUAAAAGAUAUAUGGAGUUAGUAGUGCAACCUGCUCGGUCUGAUGAGUCCCCUAAUGGACGAAACAGC
// result 1.53

// query Another variant to look at: GCUGUCACCGAGAAACUGUGAAGUAUAUCUUAAACCUGGGCACUUAAAAGAUAUAUGGAGUUAGUAGUGCAACCUGCUCGGUCUGAUGAGUCCCAUCGUGGACGAAACAGC
// result 1.74

// query Another variant to look at: GCUGUCACCGAGAAACUGUGAAGUAUAUCUUAAACCUGGGCACUUAAAAGAUAUAUGGAGUUAGUAGUGCAACCUGCUCGGUCUGAUGAGUCCCGUGCCGGACGAAACAGC
// result 1.75

Cited source for all entries: the supplement of paper PMC6757056
